This collection of values is drawn from patent US20240116985A1.

binders and their reported NanoBRET Abs IC50
Biological target: T1, B-cat-Halo (UniProt P35222 1-781)
T1 sequence (looked up): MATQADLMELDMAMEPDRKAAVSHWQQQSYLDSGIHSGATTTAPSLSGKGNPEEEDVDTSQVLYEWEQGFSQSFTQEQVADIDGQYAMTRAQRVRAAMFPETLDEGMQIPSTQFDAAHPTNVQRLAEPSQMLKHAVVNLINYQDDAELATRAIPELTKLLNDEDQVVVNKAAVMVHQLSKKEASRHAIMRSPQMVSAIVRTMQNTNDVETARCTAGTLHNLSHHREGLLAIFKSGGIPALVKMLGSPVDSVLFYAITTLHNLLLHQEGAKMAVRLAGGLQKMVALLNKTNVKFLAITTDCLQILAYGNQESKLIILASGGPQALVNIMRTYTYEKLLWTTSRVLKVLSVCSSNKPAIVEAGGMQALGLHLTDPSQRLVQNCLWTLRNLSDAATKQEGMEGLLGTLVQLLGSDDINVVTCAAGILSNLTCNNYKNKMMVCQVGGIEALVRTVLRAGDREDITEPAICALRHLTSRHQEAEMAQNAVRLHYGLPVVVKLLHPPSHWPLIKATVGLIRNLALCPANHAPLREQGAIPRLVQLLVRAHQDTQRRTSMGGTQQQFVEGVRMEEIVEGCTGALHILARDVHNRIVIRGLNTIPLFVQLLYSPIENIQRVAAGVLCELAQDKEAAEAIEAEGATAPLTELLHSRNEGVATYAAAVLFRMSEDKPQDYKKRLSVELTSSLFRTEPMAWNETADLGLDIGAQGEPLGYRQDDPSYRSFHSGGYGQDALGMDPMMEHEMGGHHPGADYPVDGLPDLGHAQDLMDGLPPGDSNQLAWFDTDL
Test: cell-based or functional assay
Starred links: 1 amine or outer side, 2 acyl side, 3 side chain; linkers in the order of their positions; H or OH if unused. Positions of bridges follow the written chain, without caps; N, C: chain ends. Non-standard residues stand in square brackets, D forms with d. Primed or numbered codes have the meaning given here. (Pfbn)GA = (S)-2-amino-3-((carboxymethyl)((perfluorophenyl)methyl)amino)propanoic acid, O=C([C@H](CN(CC(=O)[*:3])Cc1c(F)c(F)c(F)c(F)c1F)N[*:1])[*:2]; PyrS2″ = (S)-3-amino-1-((pent-4-en-1-yloxy)carbonyl)pyrrolidine-3-carboxylic acid (stapling residue), C=CCCCOC(=O)N1CC[C@@](N[*:1])(C(=O)[*:2])C1; B5(16) = 2-amino-2-(pent-4-en-1-yl)hept-6-enoic acid = 2,2-bis(4-pentenyl)glycine (stitching residue), C=CCCCC(CCCC=C)(N[*:1])C(=O)[*:2]; TfeGA = (S)-2-amino-3-((carboxymethyl)(2,2,2-trifluoroethyl)amino)propanoic acid, O=C([C@H](CN(CC(=O)[*:3])CC(F)(F)F)N[*:1])[*:2]; (sBu)GA = [sBu]GA: (2S)-2-amino-3-(sec-butyl(carboxymethyl)amino)propanoic acid, CCC(C)N(CC(=O)[*:3])C[C@H](N[*:1])C(=O)[*:2]; PyrS2 = (S)-3-amino-1-((pent-4-en-1-yloxy)carbonyl)pyrrolidine-3-carboxylic acid, C=CCCCOC(=O)N1CC[C@@](N[*:1])(C(=O)[*:2])C1; (Me)GA″ = [Me]GA: (S)-2-amino-3-((carboxymethyl)(methyl)amino)propanoic acid, CN(CC(=O)[*:3])C[C@H](N[*:1])C(=O)[*:2]; (Et)GA = [Et]GA: (S)-2-amino-3-((carboxymethyl)(ethyl)amino)propanoic acid, CCN(CC(=O)[*:3])C[C@H](N[*:1])C(=O)[*:2]; (Me)GA = (S)-2-amino-3-((carboxymethyl)(methyl)amino)propanoic acid, CN(CC(=O)[*:3])C[C@H](N[*:1])C(=O)[*:2]; B5(3) = 2,2-bis(4-pentenyl)glycine (stitching residue), C=CCCCC(CCCC=C)(N[*:1])C(=O)[*:2]; Phe(2-Cl) = N[C@@H](Cc1ccccc1Cl)C(=O)O; Bta = N[C@@H](Cc1csc2ccccc12)C(=O)O; Lys(iPr) = CC(C)NCCCC[C@H](N)C(=O)O; αAllylPro = C=CC[C@@]1(C(=O)O)CCCN1; tBuAla = CC(C)(C)C[C@H](N)C(=O)O; 3Thi = N[C@@H](Cc1ccsc1)C(=O)O; S8 = C=CCCCCCC[C@](C)(N)C(=O)O; PyrS2(4) = not defined here

[
  {
    "binder": "Ac-[αAllylPro]D[tBuAla][B5(3)]D[(Me)GA″]AAFL[PyrS2″][3Thi][Bta]Q-NH2 (staple 1-4, 4-11) [I-1631]",
    "boundSign": "=",
    "NanoBRET Abs IC50, µM": 30.1
  },
  {
    "binder": "Ac-[αAllylPro]D[tBuAla][B5(3)]D[(Et)GA]AAFN[S8][3Thi][Bta]Q-NH2 (staple 1-4, 4-11; also: earlier eluting staple isomer) [I-1627]",
    "boundSign": ">",
    "NanoBRET Abs IC50, µM": 20
  },
  {
    "binder": "Ac-[αAllylPro]D[tBuAla][B5(3)]D[(Pfbn)GA]AAFL[PyrS2″][3Thi][Bta]Q-NH2 (staple 1-4, 4-11) [I-1632]",
    "boundSign": "=",
    "NanoBRET Abs IC50, µM": 6.5
  },
  {
    "binder": "Ac-[αAllylPro]D[tBuAla][B5(3)]D[(Et)GA]AAFN[S8][3Thi][Bta]Q-NH2 (staple 1-4, 4-11; also: later eluting staple isomer) [I-1628]",
    "boundSign": ">",
    "NanoBRET Abs IC50, µM": 20
  },
  {
    "binder": "Ac-[αAllylPro]D[tBuAla][B5(3)]D[TfeGA]AAFT[PyrS2″][Phe(2-Cl)][Bta][Lys(iPr)]-NH2 (staple 1-4, 4-11) [I-1615]",
    "boundSign": "=",
    "NanoBRET Abs IC50, µM": 8
  },
  {
    "binder": "Ac-[αAllylPro]D[tBuAla][B5(3)]D[(Me)GA]AAFN[PyrS2][3Thi][Bta]Q-NH2 (staple 1-4, 4-11; also: earlier eluting staple isomer) [I-1636]",
    "boundSign": ">",
    "NanoBRET Abs IC50, µM": 20
  },
  {
    "binder": "Ac-[αAllylPro]D[tBuAla][B5(3)]D[(Tfb)GA]AAFL[PyrS2″][3Thi][Bta]Q-NH2 (staple 1-4, 4-11) [I-1629]",
    "boundSign": "=",
    "NanoBRET Abs IC50, µM": 4.3
  },
  {
    "binder": "Ac-[αAllylPro]D[tBuAla][B5(3)]D[(sBu)GA]AAFN[PyrS2″][Phe(2-Cl)][Bta]Q-NH2 (staple 1-4, 4-11) [I-1623]",
    "boundSign": "=",
    "NanoBRET Abs IC50, µM": 27.7
  },
  {
    "binder": "Ac-[αAllylPro]D[tBuAla][B5(16)]D[(Pfbn)GA]AAFN[PyrS2][3Thi][Bta]Q-NH2 (staple 1-4, 4-11) [I-1638]",
    "boundSign": "=",
    "NanoBRET Abs IC50, µM": 14.5
  },
  {
    "binder": "Ac-[αAllylPro]D[tBuAla][B5(3)]D[(Et)GA]AAFN[PyrS2(4)][Phe(2-Cl)][Bta]Q-NH2 (staple 1-4, 4-11; not fully specified; printed as Ac-PL3-Asp-Npg-B5-Asp-[Et]GA-Ala-Ala-Phe-Asn-PyrS2-2C1F-BztA-Gln-NH2; reading uncertain) [I-1622]",
    "boundSign": ">",
    "NanoBRET Abs IC50, µM": 20
  }
]
